Test: Selectivity index, ratio of CC50 for human MT4 cells to IC50 for HIV NL4-3 infected in human MT4 cells
Format: toxicity, cell-based
Details: read-out: Ratio CC50/IC50
Measured selectivity ratio, listed per entry.

Here is how some compounds turned out for selectivity ratio.
Structure string: CCCC\C=C/C=C/C=C/C(=O)O[C@H]1C(C)=C[C@]23C(=O)[C@@H](C=C(COC(C)=O)[C@@H](O)[C@]12O)[C@H]1[C@@H](C[C@H]3C)C1(C)C
selectivity ratio: > 111
//
Structure string: CCCCCCCCCCCCCC(=O)O[C@@H]1C(CO)=C[C@@H]2C(=O)[C@]3(C=C(C)[C@H](O)[C@@]13O)[C@H](C)C[C@@H]1[C@H]2C1(C)C
selectivity ratio: > 454

// moving on: another record for selectivity ratio
IN: Endpoint output: selectivity ratio of CCCCCCCCCCCCCCCC(=O)O[C@@H]1C(CO)=C[C@@H]2C(=O)[C@]3(C=C(C)[C@H](O)[C@@]13O)[C@H](C)C[C@@H]1[C@H]2C1(C)C . Value?
OUT: > 385
